Tested on: M. Luteus SCSIO ML01
Construct: SCSIO ML01
Experiment: microbe, parasite or virus in culture
Set-up: broth microdilution in Mueller-Hinton broth, minimum inhibitory concentration
Settings: Micrococcus luteus, 18 h
testReadout: MIC

Prompt: Sample Cc1ccc2c3c(c(O)cc2c1O)-c1c(O)cccc1C3=O [compound 12, isoprefluostatin] — what was its MIC?
Completion: 64 µg/mL

Prompt: # MIC lookup, item Cc1ccc2c(c1)OC1(C)C(=O)c3cc(O)c4c(c3C(N2)C1O)C(=O)c1cccc(O)c1-4 (stereo not drawn) [compound 33, 33]
Completion: > 64 µg/mL

Prompt: // returns reported MIC for input CC12OC1C(O)c1c(cc(O)c3c1C(=O)c1c(C4c5c(cc(O)c6c5C(=O)c5cccc(O)c5-6)C(=O)C5(C)OC45)ccc(O)c1-3)C2=O (stereo not drawn) [compound 24, difluostatin F]
Completion: > 64 µg/mL
